Reference source for all entries: ChEMBL document CHEMBL1201862

Can you tell me GI50 for the items I'm about to list?
tested on: XF498; test: NCI tumour cell line growth inhibition, 48 h
Calls of active or inactive are those of the source. Rule as the data show it: active = GI50 up to about 1.1 µM and inactive = higher.

NC1=C(C(=O)O)C(=O)C(Nc2c(O)cccc2C(=O)O)=CC1=O | > 100 µM (inactive)
C=CCc1cccc(/C=N\N/C(N)=N/O)c1O | 4.27 µM (inactive)
OCC(O)CNc1ccnc2cc(Cl)ccc12 (stereo not given) | > 100 µM (inactive)
COc1ccccc1NC(=O)C1=C(C)NC(C)=C(C(=O)Nc2ccccc2OC)C1c1ccccc1[N+](=O)[O-] | 22.2 µM (inactive)
CN(C)c1ccc2c(c1)C(=O)N(OS(=O)(=O)c1ccc([N+](=O)[O-])cc1)C2=O | 16.7 µM (inactive)

Provide the reported GI50 of each entry below, same order.
1. CC1=C(C(=O)Nc2ccccc2C)C(c2ccc(N(C)C)cc2)C(C(=O)Nc2ccccc2C)=C(C)N1
2. C=C=C(C(=O)OC)[S+]([O-])c1ccc([N+](=O)[O-])cc1[N+](=O)[O-] (stereo not given)
3. N#CCCn1c(S)nnc1CCC(=O)Nc1ccc(Cl)cc1Cl
4. O=P1(c2ccccc2)Nc2ccccc2SSc2ccccc2N1

### Response
1: 22.6 µM (inactive); 2: 39.1 µM (inactive); 3: > 100 µM (inactive); 4: 17.8 µM (inactive)

### Prompt Can you share its GI50? I mean this compound: OCC(O)COc1c(Cl)ccc(Cl)c1Cl (stereo not given)
### Response > 100 µM (inactive)

###

system: Malme-3M; test: NCI tumour cell line growth inhibition, 48 h
Calls of active or inactive are those of the source. Cut-off read from the data, not from the text of the source: active = GI50 up to about 1.1 µM and inactive = higher.
Can you tell me GI50 for the items I'm about to list?

Reference set (4 entries):
Cc1cc(C)nc(NS(=O)(=O)c2ccc(Nc3c4ccccc4nc4c(C(=O)N5CCN(CCOS(C)(=O)=O)CC5)cccc34)cc2)n1 | > 100 µM (inactive)
CCOC(=O)CSc1[nH]c(NC(=S)Nc2ccccc2)c(C(N)=O)c1C(N)=O | > 10 µM (inactive)
OCC(O)C(OC1OC(CO)C(O)C(O)C1O)c1nn(-c2ccccc2)c2nc3cc(Cl)ccc3nc12 (stereo not given) | > 100 µM (inactive)
O=C1/C(=C(\Nc2ccccc2)c2ccccc2)C=NN1c1ccccc1 | 59 µM (inactive)

### Prompt Can you share its GI50? I mean this compound: O=C(O)/C=C\C(=O)c1ccc(Cl)cc1
### Response 18.9 µM (inactive)

###

system: HL-60; assay: NCI tumour cell line growth inhibition, 48 h
Activity calls are given as the source filed them. Rule as the data show it: active = GI50 up to about 1.1 µM and inactive = higher.
Can you tell me GI50 for the items I'm about to list?

CC1=NN2C=Nc3c(c(-c4ccc(Cl)cc4)cn3-c3ccc(C)cc3)C2N1 (stereo not given) | > 100 µM (inactive)
COc1ccc(/C=C/C(=O)c2sc(-n3nc(-c4ccccc4)cc3-c3ccccc3)nc2C)cc1 | > 10 µM (inactive)
OC(c1ccccc1)(c1cccnc1)C(O)(c1ccccc1)c1cccnc1 (stereo not given) | > 100 µM (inactive)
CCOC(=O)[C@H](CO)NC1=C(Cl)C(=O)c2c(O)ccc(O)c2C1=O | > 10 µM (inactive)

// below: GI50 requested for another compound
### Prompt # value lookup — system HL-60, readout GI50, item CO[P@]1(=O)O[C@@H](c2ccccc2)[C@H](O)[C@@]1(O)c1ccccc1
### Response > 100 µM (inactive)
